# target.or.test.system: Glutamate NMDA receptor (Rattus norvegicus) (UniProt P35439+Q00959+Q00960+Q00961+Q62645+Q8VHN2+Q9R1M7)
# measurement.description: Displacement of [3H]TCP from rat brain NMDA receptor at 1 uM
property.label: inhibition (%)
Quick reminder: number only, in %, skip the unit.

Answered cases to consult:
C=Cc1cccc(N(C)C(=N)Nc2cccc3ccccc23)c1 :: 73.9
CSc1cccc(N(C)C(=N)Nc2cccc3c(Cl)nccc23)c1 :: 91.7
CN(C(=N)Nc1cccc2ccccc12)c1cccc(Cl)c1F :: 84

Next molecule, please.
Look up and state reported inhibition for CN(C)c1cccc(N(C)C(=N)Nc2cccc3ccccc23)c1
94.6

###

# target.or.test.system: Glutamate NMDA receptor (Rattus norvegicus) (UniProt P35439+Q00959+Q00960+Q00961+Q62645+Q8VHN2+Q9R1M7)
# measurement.description: Displacement of [3H]TCP from rat brain NMDA receptor at 1 uM
Returns one of Fulfilled or Not fulfilled; Fulfilled when inhibition is >= 70%.

Here are 5 molecules together with their reported answers.
CN(C(=N)Nc1cccc2ccccc12)c1cccc(OC(F)F)c1 :: Not fulfilled
CN(C(=N)Nc1cccc2ccccc12)c1cccc(OC(F)(F)F)c1 :: Fulfilled
CN(C(=N)Nc1cccc2ccccc12)c1cccc(F)c1 :: Not fulfilled
CN(C(=N)Nc1cccc2ccccc12)c1cccc(Oc2ccccc2)c1 :: Not fulfilled
CSc1cccc(N(C)C(=N)Nc2cccc3cnccc23)c1 :: Fulfilled

Would you kindly look at the next entry?
Please tell me: is the molecule CN(C(=N)Nc1cccc2ccccc12)c1cccc(C(F)(F)F)c1 at or over 70% in terms of inhibition?
Fulfilled

###

# target.or.test.system: Glutamate NMDA receptor
# measurement.description: Displacement of [3H]TCP from rat brain NMDA receptor
Overview of reported Ki across a group of compounds:
Quick reminder: number only, in nM, skip the unit.

Answered cases to consult:
CSc1cccc(N(C)C(=N)Nc2cccc3ccccc23)c1 :: 39.8
CN(C(=N)Nc1cccc2ccccc12)c1cccc(C(F)(F)F)c1 :: 18.3
CSc1cccc(N(C)C(=N)Nc2cccc3c(Cl)nccc23)c1 :: 540
CN(C(=N)Nc1cccc2ccccc12)c1cccc(Br)c1 :: 53.7
CN(C)c1cccc(N(C)C(=N)Nc2cccc3ccccc23)c1 :: 36.7
CN(C(=N)Nc1cccc2ccccc12)c1cc(F)cc(Cl)c1 :: 78.4
CSc1cccc(N(C)C(=N)Nc2cccc3cnccc23)c1 :: 110
CN(C(=N)Nc1cccc2ccccc12)c1cccc(I)c1 :: 31.9
CC(=O)c1cccc(N(C)C(=N)Nc2cccc3ccccc23)c1 :: 152

Look up and state reported Ki for CN(C(=N)Nc1cccc2ccccc12)c1cccc(SC(F)(F)F)c1
447

###

# target.or.test.system: Glutamate NMDA receptor (Rattus norvegicus) (UniProt P35439+Q00959+Q00960+Q00961+Q62645+Q8VHN2+Q9R1M7)
# measurement.description: Displacement of [3H]TCP from rat brain NMDA receptor at 1 uM
property.label: inhibition (%)
Quick reminder: number only, in %, skip the unit.

CN(C(=N)Nc1cccc2ccccc12)c1c(F)ccc(Cl)c1F :: 37.6
CN(C(=N)Nc1cccc2ccccc12)c1cccc(SC(F)(F)F)c1 :: 80
CN(C(=N)Nc1cccc2ccccc12)c1ccc2ccccc2c1 :: 55

Look up and state reported inhibition for CN(C(=N)Nc1cccc2ccccc12)c1cccc(Cl)c1
69.2

Look up and state reported inhibition for CSc1cccc(N(C)C(=N)Nc2ccc(Br)cc2Br)c1
69.7

Look up and state reported inhibition for CSc1cccc(N(C)C(=N)Nc2cnccc2Br)c1
23.7

Look up and state reported inhibition for CSc1cccc(N(C)C(=N)Nc2cccc3cccnc23)c1
72.2

Look up and state reported inhibition for CSc1cccc(N(C)C(=N)Nc2ccc(Br)c3ccncc23)c1
14.4

Look up and state reported inhibition for CSc1cccc(N(C)C(=N)Nc2ccc3ccccc3c2)c1
3.4

Look up and state reported inhibition for CN(C(=N)Nc1cccc2ccccc12)c1ccc(F)c(Cl)c1
65.8

Look up and state reported inhibition for CN(C(=N)Nc1cccc2ccccc12)c1cccc(C#N)c1
62.9

Look up and state reported inhibition for CSc1cccc(N(C)C(=N)Nc2cccc3ccccc23)c1
93.1

###

Overview of reported inhibition across a group of molecules:
# target.or.test.system: Glutamate NMDA receptor (Rattus norvegicus) (UniProt P35439+Q00959+Q00960+Q00961+Q62645+Q8VHN2+Q9R1M7)
# measurement.description: Displacement of [3H]TCP from rat brain NMDA receptor at 1 uM
Quick reminder: number only, in %, skip the unit.

Look up and state reported inhibition for CN(C(=N)Nc1cccc2ccccc12)c1cccc(CO)c1
20

Look up and state reported inhibition for CN(C(=N)Nc1cccc2ccccc12)c1cccc(Br)c1
104

###

# target.or.test.system: Glutamate NMDA receptor (Rattus norvegicus) (UniProt P35439+Q00959+Q00960+Q00961+Q62645+Q8VHN2+Q9R1M7)
# measurement.description: Displacement of [3H]TCP from rat brain NMDA receptor at 1 uM
property.label: inhibition (%)
Quick reminder: number only, in %, skip the unit.

CC(=O)c1cccc(N(C)C(=N)Nc2cccc3ccccc23)c1 :: 82.3
CN(C(=N)Nc1cccc2ccccc12)c1cccc(Cc2ccccc2)c1 :: 16.2
CN(C(=N)Nc1cccc2ccccc12)c1ccc(F)c([N+](=O)[O-])c1 :: 0.7
CSc1cccc(N(C)C(=N)Nc2cccc3ccncc23)c1 :: 73.8
CSc1cccc(N(C)C(=N)Nc2ccc(Cl)c3ncccc23)c1 :: 8.6

Look up and state reported inhibition for CN(C(=N)Nc1cccc2ccccc12)c1cccc(OCc2ccccc2)c1
-2.5

Look up and state reported inhibition for CN(C(=N)Nc1cccc2ccccc12)c1cccc(O)c1
11.9

Look up and state reported inhibition for CN(C(=N)Nc1cccc2ccccc12)c1cc(Br)ccc1F
13.8

Look up and state reported inhibition for CN(C(=N)Nc1cccc2ccccc12)c1ccc(F)c(Br)c1
56.5

###

# target.or.test.system: Glutamate NMDA receptor (Rattus norvegicus) (UniProt P35439+Q00959+Q00960+Q00961+Q62645+Q8VHN2+Q9R1M7)
# measurement.description: Displacement of [3H]TCP from rat brain NMDA receptor at 1 uM
Parameter class (string): assigned from measured inhibition. Ranges: low bin = under 60%, mid bin = from 60% up to 80%, high bin = 80% and over

Here are 8 compounds together with their reported answers.
CN(C(=N)Nc1cccc2ccccc12)c1cccc(SCCF)c1 :: mid bin
CN(C(=N)Nc1cccc2ccccc12)c1cccc(I)c1 :: high bin
C#Cc1cccc(N(C)C(=N)Nc2cccc3ccccc23)c1 :: mid bin
Cc1cc(N(C)C(=N)Nc2cccc3ccccc23)ccc1F :: low bin
CN(C(=N)Nc1cccc2ccccc12)c1ccc(F)c(C#N)c1 :: mid bin
C=CSc1cccc(N(C)C(=N)Nc2cccc3ccccc23)c1 :: high bin
COc1cc(F)cc(N(C)C(=N)Nc2cccc3ccccc23)c1 :: low bin
CN(C(=N)Nc1cccc2ccccc12)c1cc(F)cc(Cl)c1 :: high bin

Would you kindly look at the next entry?
Hi, small favor: classify CSc1cccc(N(C)C(=N)Nc2nccc3ccccc23)c1 by its inhibition when you get a moment.
low bin
